Tested on: Laodelphax striatellus
assay_method_text: Insecticidal activity against larvae of Laodelphax striatella (small brown planthopper) fed with compound solution dipped rice seedling measured after 5 days by test tube method
Assay type: functional
experimental_setup: 120 h
reported_property: LC50 (mg/L)
Report the value in mg/L with no unit label.

[in] API: value(readout=LC50, system=Laodelphax striatellus) for record O=[N+]([O-])/C(CSCCCF)=C1\NCCN1Cc1ccc(Cl)nc1
[out] 0.14

[in] Provide the documented LC50 with Laodelphax striatellus as the system for O=[N+]([O-])/C=C1\NCCN1Cc1ccc(Cl)nc1
[out] 0.3

[in] Request: LC50, test system Laodelphax striatellus, entry CC#CCSC/C(=C1/NCCN1Cc1ccc(Cl)nc1)[N+](=O)[O-]
[out] 0.3

[in] Enter reported LC50 observed with Laodelphax striatellus for O=[N+]([O-])/C(CSCc1ccc(Cl)cc1)=C1\NCCN1Cc1ccc(Cl)nc1
[out] 0.14

[in] Query LC50 on Laodelphax striatellus for C=CCSC/C(=C1/NCCN1Cc1ccc(Cl)nc1)[N+](=O)[O-]
[out] 0.14
